# Tested on: MALME-3M melanoma
# assay method text: NCI-60 one-dose screen, 48 h
# protocol conditions: 10 µM unless noted
Compounds without any hit were thinned out: in the full panel of roughly 83,000, 20% have a hit. Activity calls are given as the source filed them. How the source made its calls: active means growth percent below 10; inactive means the rest.
Labels: TRUE (active), FALSE (inactive)

[
  {
    "compound": "Cn1cc(-c2csc(-c3cn(CCCCN4CCCCC4)c4ccccc34)n2)c2cccnc21",
    "label": "TRUE"
  },
  {
    "compound": "COC(=O)[C@@H](C)C[C@H](Cc1ccccc1)NC(=O)c1csc([C@@H](C[C@H](C(C)C)N(C)C(=O)[C@@H](NC(=O)[C@H]2CCCN2C)C2CC2)OC(C)=O)n1",
    "label": "FALSE"
  },
  {
    "compound": "O=C(CCCC1CCCCC1)OCC(Cl)(Cl)Cl",
    "label": "FALSE"
  },
  {
    "compound": "N/C(=N\\N=C\\c1ccc(-c2ccccc2)cc1)N[N+](=O)[O-]",
    "label": "FALSE"
  },
  {
    "compound": "OCCCCCNC1CCCCC1",
    "label": "FALSE"
  },
  {
    "compound": "Cc1cc(C)cc(Nc2nc3c(s2)CC[C@@]2(C)C3=CC[C@@H]3[C@@H]2CC[C@]2(C)C(=O)CC[C@@H]32)c1",
    "label": "FALSE"
  },
  {
    "compound": "CN1CCC(O)(c2ccc(F)cc2)C(C(=O)c2ccc(F)cc2)C1 (stereo not given)",
    "label": "FALSE"
  },
  {
    "compound": "CC(C)(C)C(=O)OCOP(=O)(NCc1ccccc1)C1CCCN(O)C1=O (stereo not given)",
    "label": "FALSE"
  },
  {
    "compound": "Clc1ccc2nnnn2n1",
    "label": "FALSE"
  },
  {
    "compound": "CC1(C)N=C(N)N=C(N)N1c1ccc(OCCCNC(=O)Nc2ccc(S(=O)(=O)F)cc2)c(Cl)c1",
    "label": "FALSE"
  },
  {
    "compound": "NC(=S)c1cn(C2OC(CO)C(O)C2O)c2ncnc(N)c12 (stereo not given)",
    "label": "TRUE"
  },
  {
    "compound": "COC(=O)C12CC(NC(=O)c3csc([C@@H](C[C@H](C(C)C)N(C)C(=O)[C@@H](NC(=O)[C@H]4CCCCN4C)C(C)C)OC(C)=O)n3)(C1)C2",
    "label": "FALSE"
  },
  {
    "compound": "Cc1cccc(N2CCN(C(C)C#N)CC2)c1 (stereo not given)",
    "label": "FALSE"
  },
  {
    "compound": "CC1(C)[C@H](O)[C@H](F)C[C@@]2(C)Oc3ccc(C(=O)Nc4ccc5c(c4)NC(=O)C54CCN(CCCCC#N)CC4)cc3C[C@H]12",
    "label": "FALSE"
  },
  {
    "compound": "CCOC(=O)[C@@H](C)C[C@H](Cc1ccccc1)NC(=O)c1csc([C@@H](C[C@H](C(C)C)N(C)C(=O)[C@@H](NC(=O)[C@H]2CCCCN2C)C(C)(C)C)OC(C)=O)n1",
    "label": "FALSE"
  },
  {
    "compound": "C[C@@H]1O[C@@H](O[C@H]2C[C@@H](O)[C@]3(CO)C4C(CC[C@]3(O)C2)[C@@]2(O)CC[C@H](C3=CC(=O)OC3)[C@@]2(C)C[C@H]4O)[C@H](O)[C@H](O)[C@H]1O (stereo not given in full)",
    "label": "TRUE"
  },
  {
    "compound": "CCOP1(=O)CC(C)=C(Cl)C(P(=O)(OCC)OCC)C1 (stereo not given)",
    "label": "FALSE"
  },
  {
    "compound": "C/C(=C\\c1ccn(-c2ccc(N)cc2)n1)[C@@H]1C[C@@H]2O[C@]2(C)CCC[C@H](C)[C@H](O)[C@@H](C)C(=O)C(C)(C)[C@@H](O)CC(=O)O1",
    "label": "FALSE"
  },
  {
    "compound": "Cc1ccc(S(=O)(=O)F)cc1C(=O)O",
    "label": "FALSE"
  },
  {
    "compound": "CC1CN1CCCCN1CC1C (stereo not given)",
    "label": "FALSE"
  }
]
